FYI, the data here is from patent US20260242478A1.

assayed.target: T1, PSMA Fab (006 PSMA Fab)
T1 construct: also called Anti-PSMA Fab; anti-PSMA Fab
assay.info: clonal phage ELISA on captured PSMA Fab, wells pre-incubated with PSMA antigen as competitor, anti-M13 HRP detection;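 also: crude clonal phage supernatants added, with no intervening wash, to wells preincubated with PSMA antigen in blocking buffer, incubated briefly, then washed before detecting bound phage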
Each entry below carries its reported Phage binding ELISA signal, Anti-PSMA Fab with PSMA antigen.
Output: the number by itself.

Solved cases (6 shown):
Please report the measured Phage binding ELISA signal, Anti-PSMA Fab with PSMA antigen for IMKWCTPTWMCEMG [Phage-2743]
0.122

Please report the measured Phage binding ELISA signal, Anti-PSMA Fab with PSMA antigen for APQWCIPPWMCHDQ [Phage-2754]
0.0708

Please report the measured Phage binding ELISA signal, Anti-PSMA Fab with PSMA antigen for ETSWCRPTWMCEGM [Phage-2752]
0.0587

Please report the measured Phage binding ELISA signal, Anti-PSMA Fab with PSMA antigen for DPKWCTPSWMCDWR [Phage-2755]
0.0821

Please report the measured Phage binding ELISA signal, Anti-PSMA Fab with PSMA antigen for DVKWCKPRWMCNRD [Phage-2750]
0.0701

Please report the measured Phage binding ELISA signal, Anti-PSMA Fab with PSMA antigen for SEKWCTPAWMCGDM [Phage-2747]
0.0842

***
Please report the measured Phage binding ELISA signal, Anti-PSMA Fab with PSMA antigen for EDIWCIPSWMCGVI [Phage-2751]
0.0663

Please report the measured Phage binding ELISA signal, Anti-PSMA Fab with PSMA antigen for VVKMCKPLWMCGIS [Phage-2746]
0.0564

Please report the measured Phage binding ELISA signal, Anti-PSMA Fab with PSMA antigen for ANHWCIPSWMCTEV [Phage-2753]
0.162

Please report the measured Phage binding ELISA signal, Anti-PSMA Fab with PSMA antigen for GNLWCSPPWMCFGM [Phage-2749]
0.0732
